Where these numbers come from: patent US12594276B2

assay: Compound cytotoxicity, XTT-based colorimetric assay; type: cell-based; conditions: human; uninfected MT2 cells, day 4, XTT; read-out: CC50
Reported CC50 at 4 days values are given for each entry in this list.

{"compound": "CS(=O)(=O)Nc1nn(CCN2C[C@H](F)C[C@H](F)C2)c2c(-n3c([C@H](Cc4cc(F)cc(F)c4)NC(=O)Cn4nc(C5CC5)c5c4C[C@@H]4C[C@H]54)nc4nc(C5CCC(F)(F)CC5)cc(C5CC5)c4c3=O)ccc(Cl)c12 (atropisomer, axis not shown; (P))", "assay readout": "CC50 at 4 days", "obs value": "> 50 nM"}
{"compound": "CS(=O)(=O)Nc1nn(CCN2CCCCC2)c2c(-n3c([C@H](Cc4cc(F)cc(F)c4)NC(=O)Cn4nc(C(F)F)c5c4C(F)(F)[C@@H]4C[C@H]54)nc4nc(C5CCC(F)(F)CC5)ccc4c3=O)ccc(Cl)c12 (atropisomer, axis not shown; (P))", "assay readout": "CC50 at 4 days", "obs value": "> 50 nM"}
{"compound": "CCOCCn1nc(NS(C)(=O)=O)c2c(Cl)ccc(-n3c([C@H](Cc4cc(F)cc(F)c4)NC(=O)Cn4nc(C(F)F)c5c4C(F)(F)[C@@H]4C[C@H]54)nc4nc(C5CCC(F)(F)CC5)cc(C(F)F)c4c3=O)c21 (atropisomer, axis not shown; (P))", "assay readout": "CC50 at 4 days", "obs value": "> 50 nM"}
{"compound": "CO[C@@H](C)Cn1nc(NS(C)(=O)=O)c2c(Cl)ccc(-n3c([C@H](Cc4cc(F)cc(F)c4)NC(=O)Cn4nc(C(F)F)c5c4C(F)(F)[C@@H]4C[C@H]54)nc4nc(C5CCC(F)(F)CC5)cc(C)c4c3=O)c21 (atropisomer, axis not shown; (P))", "assay readout": "CC50 at 4 days", "obs value": "> 50 nM"}
{"compound": "COCCCn1nc(NS(C)(=O)=O)c2c(Cl)ccc(-n3c([C@H](Cc4cc(F)cc(F)c4)NC(=O)Cn4nc(C5CC5)c5c4C[C@@H]4C[C@H]54)nc4nc(C5CCC(F)(F)CC5)cc(CN5C[C@@H](C)O[C@@H](C)C5)c4c3=O)c21 (atropisomer, axis not shown; (P))", "assay readout": "CC50 at 4 days", "obs value": "> 20 nM"}

Please turn your attention to the following entry.
In: Which CC50 at 4 days is listed for Cc1cc(C2CCC(F)(F)CC2)nc2nc([C@H](Cc3cc(F)cc(F)c3)NC(=O)Cn3nc(C4CC4)c4c3C[C@@H]3C[C@H]43)n(-c3ccc(Cl)c4c(NS(C)(=O)=O)nn(CCN5CCC(C)(F)CC5)c34)c(=O)c12 (atropisomer, axis not shown; (P)) ?
Out: > 50 nM

----------
assay: Compound cytotoxicity, XTT-based colorimetric assay; format: cell-based; settings: human; uninfected MT2 cells, day 4, XTT; read-out: CC50
Reported CC50 at 4 days values are given for each entry in this list.

In: Which CC50 at 4 days is listed for Cc1cc(C2(F)CCC(F)(F)CC2)nc2nc([C@H](Cc3cc(F)cc(F)c3)NC(=O)Cn3nc(C4CC4)c4c3C[C@@H]3C[C@H]43)n(-c3ccc(Cl)c4c(NS(C)(=O)=O)nn(CCN5CCO[C@H](C(C)C)C5)c34)c(=O)c12 (atropisomer, axis not shown; (P)) ?
Out: > 20 nM

In: Which CC50 at 4 days is listed for C[C@@H]1CN(Cc2cc(C3CCC(F)(F)CC3)nc3nc([C@H](Cc4cc(F)cc(F)c4)NC(=O)Cn4nc(C(F)F)c5c4C(F)(F)[C@@H]4C[C@H]54)n(-c4ccc(Cl)c5c(NS(C)(=O)=O)nn(CCN6CCC(F)CC6)c45)c(=O)c23)C[C@H](C)O1 (atropisomer, axis not shown; (P)) ?
Out: > 20 nM

In: Which CC50 at 4 days is listed for Cc1cc(C2CCC(F)(F)CC2)nc2nc([C@H](Cc3cc(F)cc(F)c3)NC(=O)Cn3nc(C4CC4)c4c3C[C@@H]3C[C@H]43)n(-c3ccc(Cl)c4c(NS(C)(=O)=O)nn(CCN5CCCCC5)c34)c(=O)c12 (atropisomer, axis not shown; (P)) ?
Out: > 50 nM

In: Which CC50 at 4 days is listed for CS(=O)(=O)Nc1nn(CCN2C[C@H]3CC[C@@H](C2)O3)c2c(-n3c([C@H](Cc4cc(F)cc(F)c4)NC(=O)Cn4nc(C5CC5)c5c4C[C@@H]4C[C@H]54)nc4nc(C5CCC(F)(F)CC5)cc(C(F)F)c4c3=O)ccc(Cl)c12 (atropisomer, axis not shown; (P)) ?
Out: > 50 nM

In: Which CC50 at 4 days is listed for Cc1cc(C2(F)CCC(F)(F)CC2)nc2nc([C@H](Cc3cc(F)cc(F)c3)NC(=O)Cn3nc(C4CC4)c4c3C[C@@H]3C[C@H]43)n(-c3ccc(Cl)c4c(NS(C)(=O)=O)nn(CCN5C[C@H]6CC[C@@H](C5)O6)c34)c(=O)c12 (atropisomer, axis not shown; (P)) ?
Out: > 20 nM

----------
experiment: Compound cytotoxicity, XTT-based colorimetric assay; assay type: cell-based; settings: human; uninfected MT2 cells, day 4, XTT; read-out: CC50
Reported CC50 at 4 days values are given for each entry in this list.

{"compound": "Cc1cc(C2CCC(F)(F)CC2)nc2nc([C@H](Cc3cc(F)cc(F)c3)NC(=O)Cn3nc(C4CC4)c4c3C[C@@H]3C[C@H]43)n(-c3ccc(Cl)c4c(NS(C)(=O)=O)nn(CCN5CC6(CCC6)OC6(CCC6)C5)c34)c(=O)c12 (atropisomer, axis not shown; (P)) [Example 445]", "obs value": "> 20 nM"}
{"compound": "Cc1cc(C2(F)CCC(F)(F)CC2)nc2nc([C@H](Cc3cc(F)cc(F)c3)NC(=O)Cn3nc(C(F)F)c4c3C[C@@H]3C[C@H]43)n(-c3ccc(Cl)c4c(NS(C)(=O)=O)nn(CCN5C[C@@H](C)O[C@@H](C)C5)c34)c(=O)c12 (atropisomer, axis not shown; (P)) [Example 596]", "obs value": "> 20 nM"}

In: Which CC50 at 4 days is listed for COCCCn1nc(NS(C)(=O)=O)c2c(Cl)ccc(-n3c([C@H](Cc4cc(F)cc(F)c4)NC(=O)Cn4nc(C(F)F)c5c4C(F)(F)[C@@H]4C[C@H]54)nc4nc(C5CCC(F)(F)CC5)cc(NC[C@@H]5CCOC5)c4c3=O)c21 (atropisomer, axis not shown; (P)) [Example 568] ?
Out: > 20 nM

----------
Test: Compound cytotoxicity, XTT-based colorimetric assay
Assay type: cell-based
Details: human; uninfected MT2 cells, day 4, XTT; read-out: CC50
Experimental: Compound cytotoxicity and the corresponding CC50 values were determined using the same protocol as described in the antiviral assay except that uninfected cells were used. Cytotoxicity was assessed on day 4 in uninfected MT2 cells by using an XTT (2,3-bis[2-Methoxy-4-nitro-5-sulfophenyl]-2H-tetrazolium-5-carboxyanilide inner salt)-based colorimetric assay (Sigma-Aldrich, St Louis, Mo).
assay readout: CC50 at 4 days

{"compound": "COCCCn1nc(NS(C)(=O)=O)c2c(Cl)ccc(-n3c([C@H](Cc4cc(F)cc(F)c4)NC(=O)Cn4nc(C(F)F)c5c4C(F)(F)[C@@H]4C[C@H]54)nc4nc(C5CCC(F)(F)CC5)cc(NCCC(C)(C)OC)c4c3=O)c21 (atropisomer, axis not shown; (P)) [Example 565]", "CC50 at 4 days": "> 20 nM"}
{"compound": "CS(=O)(=O)Nc1nn(CCN2C[C@H](F)C[C@H](F)C2)c2c(-n3c([C@H](Cc4cc(F)cc(F)c4)NC(=O)Cn4nc(C(F)F)c5c4C(F)(F)[C@@H]4C[C@H]54)nc4nc(C5CCC(F)(F)CC5)cc(C(F)F)c4c3=O)ccc(Cl)c12 (atropisomer, axis not shown; (P)) [Example 291]", "CC50 at 4 days": "> 50 nM"}

Please turn your attention to the following entry.
In: Which CC50 at 4 days is listed for Cc1cc(C2CCC(F)(F)CC2)nc2nc([C@H](Cc3cc(F)cc(F)c3)NC(=O)Cn3nc(C(F)F)c4c3C(F)(F)[C@@H]3C[C@H]43)n(-c3ccc(Cl)c4c(NS(C)(=O)=O)nn(CCN5CCCCC5)c34)c(=O)c12 (atropisomer, axis not shown; (P)) [Example 269] ?
Out: > 50 nM

----------
Reported CC50 at 4 days values are given for each entry in this list.
experiment: Compound cytotoxicity, XTT-based colorimetric assay; type: cell-based; conditions: human; uninfected MT2 cells, day 4, XTT; read-out: CC50

{"molecule": "Cc1cc(C2(F)CCC(F)(F)CC2)nc2nc([C@H](Cc3cc(F)cc(F)c3)NC(=O)Cn3nc(C(F)F)c4c3C(F)(F)[C@@H]3C[C@H]43)n(-c3ccc(Cl)c4c(NS(C)(=O)=O)nn(CCN5CCO[C@@H](C(C)C)C5)c34)c(=O)c12 (atropisomer, axis not shown; (P))", "CC50 at 4 days": "> 20 nM"}
{"molecule": "Cc1cc(C2(F)CCC(F)(F)CC2)nc2nc([C@H](Cc3cc(F)cc(F)c3)NC(=O)Cn3nc(C(F)F)c4c3C(F)(F)[C@@H]3C[C@H]43)n(-c3ccc(Cl)c4c(NS(C)(=O)=O)nn([C@H](C)C(=O)N5CC(C)(C)OC(C)(C)C5)c34)c(=O)c12 (atropisomer, axis not shown; (P))", "CC50 at 4 days": "> 20 nM"}

In: Which CC50 at 4 days is listed for CS(=O)(=O)Nc1nn(CCN2CCC(F)(F)CC2)c2c(-n3c([C@H](Cc4cc(F)cc(F)c4)NC(=O)Cn4nc(C(F)F)c5c4C(F)(F)[C@@H]4C[C@H]54)nc4nc(C5CCC(F)(F)CC5)cc(C(F)F)c4c3=O)ccc(Cl)c12 (atropisomer, axis not shown; (P)) ?
Out: > 50 nM
